- Test target: Toll-like receptor 4 (Mus musculus)
- Assay method text: Inhibition of TLR4 in BALB/c mouse BMDM assessed as downregulation of LPS-stimulated IL-12p40 level at 5 ug/ml preincubated for 18 hrs followed by LPS challenge measured after 24 hrs by ELISA relative to control
Activity calls are given as the source filed them. No rule for the calls is given here.
Quantity measured: inhibition

| Smiles notation | inhibition |
| --- | --- |
| Cc1ccc(CS(=O)(=O)CCN2CCCC2)cc1 | Active |
| O=S(=O)(CCN1CCCC1)Cc1cccc(F)c1 | inactive |
| CN(C)CCN(C)CCS(=O)(=O)Cc1ccc(F)cc1 | inactive |
| Cc1ccc(CP(=O)(O)OCCCN(C)C)cc1 | inactive |
| COc1cccc(C(=O)NCCCN(C)C)c1 | Active |

Each compound below has a recorded value; state its inhibition.
1. O=S(=O)(CCN1CCCC1)Cc1ccc(Br)cc1
2. Cc1ccc(CNS(=O)(=O)CCN(C)CCN(C)C)cc1

Reply text:
Active
Active

----------
- Test target: TLR2/TLR6 (Mus musculus) (UniProt Q9QUN7+Q9EPW9)
- Assay method text: Inhibition of TLR2/6 in BALB/c mouse BMDM assessed as downregulation of BLP-stimulated IL-12p40 level at 5 ug/ml preincubated for 18 hrs followed by BLP challenge measured after 24 hrs by ELISA relative to control
- Format: protein-complex assay
Active and inactive are the calls of the source. The rule behind the calls is not given here.
Lab note: assign the record to one of active, inactive

| Smiles notation | Label class |
| --- | --- |
| O=C(Cc1ccccc1)NCCN1CCCC1 | inactive |
| CN1CCN(CCS(=O)(=O)c2ccccc2)CC1 | inactive |
| O=S(=O)(CCN1CCOCC1)NCc1ccccc1 | inactive |
| C[N+](C)(C)CCCS(=O)(=O)Cc1ccc(Br)cc1 | inactive |
| CN(C)CCNS(=O)(=O)Cc1ccc([N+](=O)[O-])cc1 | inactive |
| Cc1ccc(CS(=O)(=O)NCCCN(C)C)cc1 | inactive |

From here, focus on the item given below.
Inquiry: Would you mind telling me which call this test gave O=S(=O)(Cc1ccc2ccccc2c1)NCCN1CCOCC1 ?
Reply text: active

----------
- Test target: UniProtKB Q9EQU3
- Sequence (Q9EQU3 whole entry): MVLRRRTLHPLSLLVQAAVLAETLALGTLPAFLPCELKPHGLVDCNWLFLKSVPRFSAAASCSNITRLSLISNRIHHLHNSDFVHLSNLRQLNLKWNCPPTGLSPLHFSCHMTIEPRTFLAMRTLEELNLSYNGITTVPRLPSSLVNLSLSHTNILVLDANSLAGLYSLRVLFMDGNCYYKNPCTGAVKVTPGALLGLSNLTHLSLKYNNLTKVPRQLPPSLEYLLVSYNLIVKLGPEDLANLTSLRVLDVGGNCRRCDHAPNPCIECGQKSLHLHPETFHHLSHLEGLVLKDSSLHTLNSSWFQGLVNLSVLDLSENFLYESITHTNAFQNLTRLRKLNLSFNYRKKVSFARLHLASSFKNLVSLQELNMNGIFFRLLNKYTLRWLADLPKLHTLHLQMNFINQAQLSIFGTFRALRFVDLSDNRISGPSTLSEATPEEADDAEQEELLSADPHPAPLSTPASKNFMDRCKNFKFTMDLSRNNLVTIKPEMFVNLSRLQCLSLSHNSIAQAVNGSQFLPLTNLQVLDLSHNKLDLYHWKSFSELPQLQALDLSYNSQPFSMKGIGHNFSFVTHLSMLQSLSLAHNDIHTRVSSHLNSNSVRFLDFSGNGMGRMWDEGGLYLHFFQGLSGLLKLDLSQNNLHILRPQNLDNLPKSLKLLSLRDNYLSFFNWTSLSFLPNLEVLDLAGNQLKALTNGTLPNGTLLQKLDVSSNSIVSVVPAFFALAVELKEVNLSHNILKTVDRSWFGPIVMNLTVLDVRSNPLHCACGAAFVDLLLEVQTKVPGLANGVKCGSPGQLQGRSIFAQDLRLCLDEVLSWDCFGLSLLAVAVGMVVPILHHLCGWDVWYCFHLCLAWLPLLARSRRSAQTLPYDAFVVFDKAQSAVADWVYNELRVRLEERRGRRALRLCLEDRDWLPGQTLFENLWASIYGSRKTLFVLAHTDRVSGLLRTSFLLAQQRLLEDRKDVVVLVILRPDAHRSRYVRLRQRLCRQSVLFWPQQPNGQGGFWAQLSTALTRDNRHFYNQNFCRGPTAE
- Assay method text: Inhibition of TLR9 in BALB/c mouse BMDM assessed as downregulation of CpG-stimulated IL-6 level at 5 ug/ml preincubated for 18 hrs followed by CpG challenge measured after 24 hrs by ELISA relative to control
Active and inactive are the calls of the source. How the calls were made is not given here.
Bench note: report the call from T (active), F (inactive)

Below are worked cases with known answers.
| Smiles notation | Test target | Label class |
| --- | --- | --- |
| Cc1ccc(CS(=O)(=O)CCN2CCCC2)cc1 | UniProtKB Q9EQU3 | F |
| CN(C)CCN(C)CCS(=O)(=O)NCc1ccc(Br)cc1 | UniProtKB Q9EQU3 | F |
| O=S(=O)(CCNCCCO)c1ccccc1 | UniProtKB Q9EQU3 | F |
| O=C(Cc1ccccc1)NCCN1CCCC1 | UniProtKB Q9EQU3 | T |

Consider the record given below.
Inquiry: Record request — test call for CN(C)CCNS(=O)(=O)Cc1ccc(F)cc1
Reply text: F

----------
- Test target: TLR2/TLR6 (Mus musculus) (UniProt Q9QUN7+Q9EPW9)
- Assay method text: Inhibition of TLR2/6 in BALB/c mouse BMDM assessed as downregulation of BLP-stimulated IL-12p40 level at 5 ug/ml preincubated for 18 hrs followed by BLP challenge measured after 24 hrs by ELISA relative to control
- Type: protein-complex assay
The source made the active and inactive calls. The rule behind the calls is not given here.
Give one outcome, nothing more. List: Y (active), N (inactive)

| Smiles notation | Label class |
| --- | --- |
| CN(C)CCN(C)CCS(=O)(=O)Cc1cccc(F)c1 | N |

Inquiry: // return assay outcome for O=S(=O)(Cc1ccccc1)NCCN1CCCC1
Reply text: N

Inquiry: State the result this test recorded for CN(C)CCS(=O)(=O)NCc1ccccc1 .
Reply text: N

Inquiry: How did this test come out for Cc1ccc(CS(=O)(=O)CCN2CCCC2)cc1 ?
Reply text: Y

Inquiry: Please state the recorded outcome for this molecule: CN(C)CCNS(=O)(=O)Cc1ccc(F)cc1
Reply text: N

Inquiry: // return assay outcome for COc1ccc2c(CS(=O)(=O)NCCN(C)C)cc(=O)oc2c1
Reply text: Y

Inquiry: Tell me the assay call for CN(C)CCS(=O)(=O)Nc1ccccc1 please.
Reply text: N

Inquiry: Which outcome was assigned to CC[C@@H](C)NCCS(=O)(=O)Cc1ccc(Br)cc1 in this test?
Reply text: N
